Source of measurements: ChEMBL document CHEMBL1131513

test: Ratio of NRII-NRI to KinA-Spo0F IC50s
measuredProperty: Ratio

{"columns": ["recordSmiles", "Ratio"],
 "data": [
  ["O=[N+]([O-])c1cc(-c2n[nH]c(-c3ccc(Cl)c(Cl)c3)n2)c(O)c([N+](=O)[O-])c1", 3.5]
]}

1: Oc1c(Cl)cc(Cl)cc1-c1n[nH]c(-c2ccc(Cl)c(Cl)c2)n1
2: Oc1c(Cl)cc(Cl)cc1-c1n[nH]c(-c2ccc(Cl)cc2)n1
3: Oc1c(Cl)cc(Cl)cc1-c1n[nH]c(-c2cccc(Cl)c2)n1
Prompt: Sequence the entries by Ratio, beginning with the highest number. Output spec: a listing of the labels in the requested order.
Completion: 1, 3, 2

a: Oc1c(Br)cc(Br)cc1-c1n[nH]c(-c2ccc(Oc3ccccc3)cc2)n1
b: Oc1c(Cl)cc(Cl)cc1-c1n[nH]c(-c2ccc(Cl)c(C(F)(F)F)c2)n1
Prompt: // task: argmin of Ratio over [ a , b ] Please respond with the label that marks your chosen entry.
Completion: a
